# Assay System: recombinant human FLAP protein (Homo sapiens, UniProt P20292)
# Protocol Description: FLAP binding assay, displacement of iodinated (125I) FLAP inhibitor, Scintillation Proximity Assay format
# Test Settings: [125I]L-691,831 probe, membrane protein from sf9 cells; read-out: hFLAP binding IC50
Experimental Endpoint: IC50 (nM)

Example cases with answers are listed next.
INSERT INTO measurements (compound, experimental_endpoint, numeric_result) VALUES
  ('CC(C)(C)n1c(-c2ccc(OC3CCOC3)cc2-n2cncn2)nc2cc(-c3cnc(N)nc3)ccc21 (stereo not drawn)', 'IC50', 10.6),
  ('COc1ccc(-c2csc(C)n2)c(-c2nc3cc(-c4cnc(N)nc4)ccc3n2C(C)(C)C)c1', 'IC50', 1.7),
  ('CC(C)Oc1ccc(-n2cncn2)c(-c2nc3cc(-c4cnc(N)nc4)ccc3n2C(C)(C)C)c1', 'IC50', 2.2);

1. CCc1ccc(-n2cncn2)c(-c2nc3cc(-c4cnc(N)nc4)ccc3n2C(C)(C)C)c1
2. CCNC(=O)c1ncn(-c2ccc(C#N)cc2-c2nc3cc(-c4cnc(N)nc4)ccc3n2C(C)(C)C)n1
Prompt: Between 1 and 2 , which one shows the larger IC50 value? // output: label of the selected item
Response: 2
(2: 29.5 nM, 1: 2.4 nM)

I. Cc1ncn(-c2ccc(C#N)cc2-c2nc3cc(-c4cnc(N)nc4)ccc3n2C(C)(C)C)n1
II. CC(C)(C)n1c(-c2cc(C#N)ccc2-n2cnc(Br)n2)nc2cc(-c3cnc(N)nc3)ccc21
III. COc1ccc(-c2nc(C)no2)c(-c2nc3cc(-c4cnc(N)nc4)ccc3n2C(C)(C)C)c1
Prompt: I would appreciate it if you could sort these 3 compounds by IC50, starting from the smallest number. List the labels, following the order given in the request.
Response: II, I, III
(II: 0.83 nM, I: 3 nM, III: 24 nM)

A. COc1ccc(-n2cnc(C)n2)c(-c2nc3cc(-c4cnc(N)nc4)ccc3n2C(C)(C)C)c1
B. Cn1ncnc1-c1ccccc1-c1nc2cc(-c3cnc(N)nc3)ccc2n1C(C)(C)C
Prompt: Between A and B , which one shows the larger IC50 value? // output: label of the selected item
Response: B

1. Cc1nc(C)n(-c2ccc(C#N)cc2-c2nc3cc(-c4cnc(N)nc4)ccc3n2C(C)(C)C)n1
2. Cn1ncnc1-c1ccc(F)cc1-c1nc2cc(-c3cnc(N)nc3)ccc2n1C(C)(C)C
Prompt: Which value of IC50 is smaller, the one for 1 or the one for 2 ? // output: label of the selected item
Response: 2
(2: 1.6 nM, 1: 2.5 nM)

----------
# Assay System: recombinant human FLAP protein (Homo sapiens)
# Sequence (P20292 1-161): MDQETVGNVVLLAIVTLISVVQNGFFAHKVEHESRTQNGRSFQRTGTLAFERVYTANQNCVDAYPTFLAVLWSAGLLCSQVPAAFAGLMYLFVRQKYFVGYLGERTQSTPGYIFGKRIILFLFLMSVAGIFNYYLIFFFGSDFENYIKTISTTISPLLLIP
# Protocol Description: FLAP binding assay, displacement of iodinated (125I) FLAP inhibitor, Scintillation Proximity Assay format
# Test Settings: [125I]L-691,831 probe, membrane protein from sf9 cells; read-out: hFLAP binding IC50
pIC50: −log10 of the molar value.
Experimental Endpoint: pIC50

Example cases with answers are listed next.
INSERT INTO results (compound_string, numeric_result) VALUES
  ('CC(C)(C)n1c(-c2cc(-c3nn[nH]n3)ccc2-n2cncn2)nc2cc(-c3cnc(N)nc3)ccc21', 8.34),
  ('CC(C)(Oc1ccc(-c2nc3cc(-c4cnc(N)nc4)ccc3n2C(C)(C)C)c(-n2cncn2)c1)C(=O)O', 8.26),
  ('COc1ccc(-n2cncn2)c(-c2nc3cc(-c4cnc(N)nc4)ccc3n2C(C)(C)C)c1', 8.77);

P. CC(C)(C)n1c(-c2cc(F)ccc2-n2cccn2)nc2cc(-c3cnc(N)nc3)ccc21
Q. COc1ccc(-c2nc(C)ns2)c(-c2nc3cc(-c4cnc(N)nc4)ccc3n2C(C)(C)C)c1
Prompt: Between P and Q , which one shows the larger pIC50 value? // output: label of the selected item
Response: P

a. CC(C)(C)n1c(-c2ccccc2-n2cncn2)nc2cc(-c3cnc(N)nc3)ccc21
b. CCCCC/C(=C\C(=O)OC)c1ccc(-n2cncn2)c(-c2nc3cc(-c4cnc(N)nc4)ccc3n2C(C)(C)C)c1
c. CC(C)(C)n1c(-c2cc(Cl)ccc2-n2cccn2)nc2cc(-c3cnc(N)nc3)ccc21
d. CC(C)(C)n1c(-c2cc(C#N)ccc2-n2cnc(-c3ccccc3Cl)n2)nc2cc(-c3cnc(N)nc3)ccc21
Prompt: Sort by pIC50, descending. List the labels, following the order given in the request.
Response: c, a, d, b
(c: 8.89, a: 8.57, d: 8.36, b: 7.55)

a. CC(C)(C)n1c(-c2cc(CO)ccc2-n2cncn2)nc2cc(-c3cnc(N)nc3)ccc21
b. CC(C)(C)n1c(-c2ccccc2-c2ncn(CCO)n2)nc2cc(-c3cnc(N)nc3)ccc21
c. Cc1ccc(-n2cncn2)c(-c2nc3cc(-c4cnc(N)nc4)ccc3n2C(C)(C)C)c1
Prompt: Sort by pIC50, descending. List the labels, following the order given in the request.
Response: c, b, a

A. CC(C)(C)n1c(-c2cc(-c3csc(C(=O)O)c3)ccc2-n2cncn2)nc2cc(-c3cnc(N)nc3)ccc21
B. Cc1ccn(-c2ccc(Cl)cc2-c2nc3cc(-c4cnc(N)nc4)ccc3n2C(C)(C)C)n1
Prompt: Between A and B , which one shows the larger pIC50 value? // output: label of the selected item
Response: B
(B: 9.15, A: 7.97)

1. CC(C)COC(=O)c1ncn(-c2ccc(C#N)cc2-c2nc3cc(-c4cnc(N)nc4)ccc3n2C(C)(C)C)n1
2. Cn1ncnc1-c1ccc(Cl)cc1-c1nc2cc(-c3cnc(N)nc3)ccc2n1C(C)(C)C
3. Cc1ncnn1-c1ccccc1-c1nc2cc(-c3cnc(N)nc3)ccc2n1C(C)(C)C
Prompt: Sort by pIC50, descending. List the labels, following the order given in the request.
Response: 2, 3, 1
